# Experimental System: T1, mouse CD47 (mouse, UniProt Q61735 19-303)
# T1 construct: whole, on cells; also called CD47 on mouse RBCs; CD47 on 4T1 cells
# T1 sequence (looked up): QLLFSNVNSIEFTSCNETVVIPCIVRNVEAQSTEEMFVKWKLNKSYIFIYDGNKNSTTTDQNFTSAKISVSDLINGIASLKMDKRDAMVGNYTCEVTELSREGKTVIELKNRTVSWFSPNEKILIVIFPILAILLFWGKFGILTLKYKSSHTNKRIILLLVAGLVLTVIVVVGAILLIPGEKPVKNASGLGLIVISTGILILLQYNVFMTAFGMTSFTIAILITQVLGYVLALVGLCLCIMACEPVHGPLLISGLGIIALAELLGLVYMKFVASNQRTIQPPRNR
# Assay Procedure: FACS, mouse RBCs, supernatant 10 ng/ml
For each entry below, report its mean fluorescence relative to chimera value.
Keep it simple and answer with nothing but the number.

Memo: Clone 6 (pVxK7b-037-hum06-LC / pVxK7b-037-hum06-HC) (antibody, human IgG1, kappa, V domains shown) VH: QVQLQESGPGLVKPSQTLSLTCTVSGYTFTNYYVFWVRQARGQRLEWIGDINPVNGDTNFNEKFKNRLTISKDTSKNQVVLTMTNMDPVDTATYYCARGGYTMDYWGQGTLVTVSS VL: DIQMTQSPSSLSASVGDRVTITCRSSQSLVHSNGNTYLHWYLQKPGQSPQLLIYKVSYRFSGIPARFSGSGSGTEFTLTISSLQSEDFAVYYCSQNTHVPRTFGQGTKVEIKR , reported mean fluorescence relative to chimera: 1.2

Documented mean fluorescence relative to chimera of Clone 15 (pVxK7b-037-hum15-LC / pVxK7b-037-hum15-HC) (antibody, human IgG1, kappa, V domains shown) VH: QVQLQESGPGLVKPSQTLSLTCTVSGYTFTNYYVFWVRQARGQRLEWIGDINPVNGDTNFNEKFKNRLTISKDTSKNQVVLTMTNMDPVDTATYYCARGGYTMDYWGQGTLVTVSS VL: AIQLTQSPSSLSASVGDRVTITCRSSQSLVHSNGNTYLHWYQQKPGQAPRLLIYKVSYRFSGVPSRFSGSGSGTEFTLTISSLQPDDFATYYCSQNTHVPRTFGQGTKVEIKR : 1.3

Reported mean fluorescence relative to chimera for Clone 21 (pVxK7b-037-hum21-LC / pVxK7b-037-hum21-HC) (antibody, human IgG1, kappa, V domains shown) VH: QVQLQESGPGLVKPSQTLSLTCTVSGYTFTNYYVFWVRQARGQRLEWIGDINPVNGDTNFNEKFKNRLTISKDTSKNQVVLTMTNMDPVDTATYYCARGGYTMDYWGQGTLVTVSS VL: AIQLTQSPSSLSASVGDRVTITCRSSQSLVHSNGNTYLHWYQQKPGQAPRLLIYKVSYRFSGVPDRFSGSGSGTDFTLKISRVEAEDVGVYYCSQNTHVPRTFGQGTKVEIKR was 1.2

The measured mean fluorescence relative to chimera associated with Clone 12 (pVxK7b-037-hum12-LC / pVxK7b-037-hum12-HC) (antibody, human IgG1, kappa, V domains shown) VH: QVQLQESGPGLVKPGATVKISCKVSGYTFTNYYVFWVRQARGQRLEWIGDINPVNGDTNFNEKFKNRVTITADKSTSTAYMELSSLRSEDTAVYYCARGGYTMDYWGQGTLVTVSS VL: DIVMTQTPLSLPVTPGEPASISCRSSQSLVHSNGNTYLHWYQQKPGKAPKLLIYKVSYRFSGVPDRFSGSGSGTDFTLKISRVEAEDVGVYYCSQNTHVPRTFGQGTKVEIKR reads 0.6

Value of mean fluorescence relative to chimera reported for the binder Clone 24 (pVxK7b-037-hum24-LC / pVxK7b-037-hum24-HC) (antibody, human IgG1, kappa, V domains shown, also called Cl 24) VH: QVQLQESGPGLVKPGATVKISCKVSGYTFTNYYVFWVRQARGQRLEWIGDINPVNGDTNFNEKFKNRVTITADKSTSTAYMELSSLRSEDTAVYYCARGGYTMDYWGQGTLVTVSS VL: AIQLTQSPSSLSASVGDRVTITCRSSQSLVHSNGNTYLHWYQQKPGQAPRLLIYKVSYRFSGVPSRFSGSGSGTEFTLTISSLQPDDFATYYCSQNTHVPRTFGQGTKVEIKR is 0.7

What the record says about Clone 2 (pVxK7b-037-hum02-LC / pVxK7b-037-hum02-HC) (antibody, human IgG1, kappa, V domains shown) VH: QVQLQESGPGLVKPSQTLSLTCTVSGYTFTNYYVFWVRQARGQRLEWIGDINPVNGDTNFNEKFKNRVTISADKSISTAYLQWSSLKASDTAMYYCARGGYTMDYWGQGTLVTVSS VL: DVVMTQSPLSLPVTLGQPASISCRSSQSLVHSNGNTYLHWYQQKPGQAPRLLIYKVSYRFSGVPSRFSGSGSGTEFTLTISSLQPDDFATYYCSQNTHVPRTFGQGTKVEIKR : mean fluorescence relative to chimera is 1.2

// Clone 11 (pVxK7b-037-hum11-LC / pVxK7b-037-hum11-HC) (antibody, human IgG1, kappa, V domains shown, also called Cl 11) VH: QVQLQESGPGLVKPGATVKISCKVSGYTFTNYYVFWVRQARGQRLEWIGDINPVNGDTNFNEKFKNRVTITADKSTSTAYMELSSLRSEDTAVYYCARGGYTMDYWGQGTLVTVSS VL: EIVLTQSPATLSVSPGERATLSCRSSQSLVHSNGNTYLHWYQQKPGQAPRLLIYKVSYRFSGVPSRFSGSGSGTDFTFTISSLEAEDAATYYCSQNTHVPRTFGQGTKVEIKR : mean fluorescence relative to chimera value = 0.7

The binder identified as Clone 10 (pVxK7b-037-hum10-LC / pVxK7b-037-hum10-HC) (antibody, human IgG1, kappa, V domains shown) VH: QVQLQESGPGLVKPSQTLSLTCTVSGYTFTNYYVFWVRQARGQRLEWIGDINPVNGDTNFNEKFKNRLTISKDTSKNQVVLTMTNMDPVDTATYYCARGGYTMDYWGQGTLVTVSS VL: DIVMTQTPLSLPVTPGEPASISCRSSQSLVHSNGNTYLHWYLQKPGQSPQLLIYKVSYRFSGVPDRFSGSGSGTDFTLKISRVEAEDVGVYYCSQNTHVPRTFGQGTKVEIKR registered its mean fluorescence relative to chimera at 1.2

// recorded mean fluorescence relative to chimera for Clone 18 (pVxK7b-037-hum18-LC / pVxK7b-037-hum18-HC) (antibody, human IgG1, kappa, V domains shown) VH: EVQLVQSGAEVKKPGESLRISCKGSGYTFTNYYVFWIRQSPSRGLEWLGDINPVNGDTNFNEKFKNRVTITADKSTSTAYMELSSLRSEDTAVYYCARGGYTMDYWGQGTLVTVSS VL: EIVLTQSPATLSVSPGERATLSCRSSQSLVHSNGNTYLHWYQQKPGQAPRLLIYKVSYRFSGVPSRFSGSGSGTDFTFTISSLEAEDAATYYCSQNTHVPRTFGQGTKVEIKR : 1.3
